Data origin: PubChem BioAssay (NCI)

System: BT-549 breast
Experiment: NCI-60 one-dose screen, 48 h (100 = growth as untreated, 0 = no growth, -100 = all killed)
Conditions: 10 µM unless noted
This is part of a sample that, as a whole, favours compounds with a hit. Of some 83,000 tested, about 20% had one in any assay.
Mark fulfilled only when growth stays strictly below 80%. Values equal to the cut-off are not fulfilled.

COMPOUND | CLASS ASSIGNMENT
Clc1ccc2c(c1)c(-c1ccccc1)nc1nncn12 | not fulfilled
Brc1ccc(C2CC(c3cccc(Nc4ccncc4)c3)=NN2c2ccccc2)cc1 (stereo not given) | not fulfilled

Turning now to a further compound:
// query Is it true that growth reported for Cn1c(COC(=O)N2CCCCC2)nc2c(N3CCOCC3)nc(-c3ccccc3)nc21 is less than 80%?
// result fulfilled

----------
# growth per entry
System: BT-549 breast
Test: NCI-60 one-dose screen, 48 h (100 = growth as untreated, 0 = no growth, -100 = all killed)
Conditions: 10 µM unless noted
Experimental: Growth inhibition of the BT-549 human tumor cell line is measured as a screen for anti-cancer activity. Cells are grown in 96 well plates and exposed to the test compound for 48 hours. Compounds are tested at a single concentration, which is 10^-5 M for most compounds. The reported endpoint is percent growth (GI% or GIPRCNT), where numbers from 0 - 100% represent growth inhibition, and numbers from -100% - 0 represent cell death. For example, a value of 40 represents 60% growth inhibition. […]
Compounds without any hit were thinned out: in the full panel of roughly 83,000, 20% have a hit. The source made the active and inactive calls. How the source made its calls: active means growth percent below 10; inactive means the rest.

// known answers, use as guide
COMPOUND | REPORTED MEASUREMENT
Cc1cccc(Oc2ccc(Nc3ncnc4ccc(NC(=O)CNCCO)cc34)cc2Cl)c1 | 73.4% (inactive)
CC(=O)NCCCS(=O)(=O)O | 110% (inactive)
O=C(CSc1nc2sc3c(c2c(=O)n1Cc1ccccc1)CCCC3)N1CCN(c2ccccc2)CC1 | 90.1% (inactive)
[2H]C1([2H])NC([2H])([2H])C([2H])([2H])N(c2ccc(Nc3ncc4cc(C(=O)N(C)C)n(C5CCCC5)c4n3)nc2)C1([2H])[2H] | 92.9% (inactive)
CCCCOc1ccc(/C=N/Nc2cc(C)nc3ccc(Cl)cc23)cc1 | 96.6% (inactive)
COc1ccc(C2CC(n3nnnc3-c3ccccc3)=NN2)cc1 (centres undefined) | 81.4% (inactive)
COc1ccc(NC(=O)c2sc3nc(C)c(C(O)c4ccc(OC)cc4)cc3c2N)cc1 (centres undefined) | 28.8% (inactive)
Cc1ccc(C(=O)Nc2ccccc2C(=O)N/N=C(\c2ccccc2)c2ccccn2)cc1 | 13.5% (inactive)

Kindly review the next compound as well.
Form field growth for item COc1ccccc1N1CCN(C(=O)c2ccc3nc(NC(=O)c4ccc(NCCc5ccccc5)c([N+](=O)[O-])c4)sc3c2)CC1 on BT-549 breast: 80.3% (inactive)

----------
Entries and their growth
System: OVCAR-4 ovarian
Test: NCI-60 one-dose screen, 48 h (100 = growth as untreated, 0 = no growth, -100 = all killed)
Details: 10 µM unless noted
The panel holds about 83,000 compounds, 20% with a hit somewhere; the sample as a whole holds those more often.
Expressed in %, but write only the number.

MOLECULE | growth (%)
Cc1ccc(C2CC(c3cccc(Nc4ccncc4)c3)=NN2c2cc(Cl)cc(Cl)c2)cc1 (stereo not given) | 15
O=C(NCCN1CCOCC1)OCc1nc2nc(Cl)nc(N3CCOCC3)c2[nH]1 | 45.7

What the record says about CC(O)(CO)c1ccccc1 (stereo not given) : growth is 103
